Measured values drawn from ChEMBL document CHEMBL1138537 for this set.

Target: Sterol 14alpha-demethylase (Mycobacterium tuberculosis)
Sequence (P9WPP9 whole entry): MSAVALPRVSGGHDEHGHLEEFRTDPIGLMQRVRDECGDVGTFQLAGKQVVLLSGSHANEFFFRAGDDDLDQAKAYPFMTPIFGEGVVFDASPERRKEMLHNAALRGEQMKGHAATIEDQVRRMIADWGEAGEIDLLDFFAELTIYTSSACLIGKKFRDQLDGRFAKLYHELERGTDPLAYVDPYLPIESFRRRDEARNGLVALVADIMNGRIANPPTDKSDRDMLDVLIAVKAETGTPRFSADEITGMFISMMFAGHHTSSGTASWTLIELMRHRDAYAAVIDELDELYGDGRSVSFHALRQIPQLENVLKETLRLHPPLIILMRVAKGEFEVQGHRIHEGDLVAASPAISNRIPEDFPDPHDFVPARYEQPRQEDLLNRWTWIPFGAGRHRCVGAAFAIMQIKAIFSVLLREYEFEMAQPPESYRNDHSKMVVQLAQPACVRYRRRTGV
pKd: −log10 of the molar value.
RECORDED ENDPOINT: pKd

> print(dat)
                      smiles.representation                              study.system  recorded.endpoint  measurement
1               O=C(c1ccc(O)cc1)c1ccc(O)cc1  Sterol 14alpha-demethylase (Mycobacterium tuberculosis)                pKd         4.55
2              O=C1c2cc(O)ccc2-c2ccc(O)cc21  Sterol 14alpha-demethylase (Mycobacterium tuberculosis)                pKd         4.60
3  C[C@]12CC[C@@H]3c4ccc(O)cc4CC[C@H]3[C@@H]1C[C@@H](O)[C@@H]2O  Sterol 14alpha-demethylase (Mycobacterium tuberculosis)                pKd         4.00
4                     c1ccc(-c2c[nH]cn2)cc1  Sterol 14alpha-demethylase (Mycobacterium tuberculosis)                pKd         5.89

====

target: Cytochrome P450 130 (Mycobacterium tuberculosis)
Sequence (P9WPN5 whole entry): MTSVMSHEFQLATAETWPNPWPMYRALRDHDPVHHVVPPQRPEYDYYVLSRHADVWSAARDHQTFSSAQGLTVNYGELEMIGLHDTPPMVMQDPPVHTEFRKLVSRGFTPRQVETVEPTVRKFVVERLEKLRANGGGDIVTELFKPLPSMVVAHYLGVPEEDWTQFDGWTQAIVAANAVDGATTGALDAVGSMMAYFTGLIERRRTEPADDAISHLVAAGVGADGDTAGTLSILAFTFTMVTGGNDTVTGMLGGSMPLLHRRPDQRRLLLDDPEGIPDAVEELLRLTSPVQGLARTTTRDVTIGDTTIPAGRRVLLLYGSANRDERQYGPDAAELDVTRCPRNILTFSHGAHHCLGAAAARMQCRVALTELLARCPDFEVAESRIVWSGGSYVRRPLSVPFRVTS
RECORDED ENDPOINT: Kd (µM)

> print(dat)
                                   compound  measurement
1  CCC(C(=O)Nc1ccncc1)c1ccccc1 (stereo unspecified)          260
